# STUDY TARGET: T1, PSA(67-79)-G0F (human, also: Asn3 N-glycosylated with octasaccharide carrying alpha-1,6 core fucose (G0F))
# T1 construct: Synthetic glycopeptide (3.9 kDa as SPR analyte), made on Sieber Amide resin; For the ELISAs a biotinylated form was used (glutamic acid derivative with a PEG3-biotin side chain at the N-terminus); also called PSA(67-79)-GOF; glycopeptide of Formula Ib
# T1 peptide: IRN(G0F)KSVILLGRHS-NH2
# EXPERIMENT: SPR, Biacore 8k, 37 C, antibody captured by anti-rabbit Fc, peptide as analyte, Langmuir fit
Ends that are not written are not given here. * marks the point of attachment. G0F = octasaccharide N-glycan with alpha-1,6 core fucose (Formula Ib, linkages Formula Ic), CC(=O)N[C@@H]1[C@@H](O)[C@H](O[C@@H]2O[C@H](CO)[C@@H](O[C@@H]3O[C@H](CO[C@H]4O[C@H](CO)[C@@H](O)[C@H](O)[C@@H]4O[C@@H]4O[C@H](CO)[C@@H](O)[C@H](O)[C@H]4NC(C)=O)[C@@H](O)[C@H](O[C@H]4O[C@H](CO)[C@@H](O)[C@H](O)[C@@H]4O[C@@H]4O[C@H](CO)[C@@H](O)[C@H](O)[C@H]4NC(C)=O)[C@@H]3O)[C@H](O)[C@H]2NC(C)=O)[C@@H](CO[C@@H]2O[C@@H](C)[C@@H](O)[C@@H](O)[C@@H]2O)O[C@H]1*
This section presents binders with their documented t/2diss values.
QUANTITY NAME: t/2diss

binder="3H6 (antibody, V domains shown, Rabbit monoclonal IgG (150 kDa); also called anti-1,6fucPSA antibody 3H6) VH: QSLEESGGDLVKPGASLTLTCTASGFSFSSGYDMCWVRQAPGKGLEWIACIYADGSGSTYYASWAKGRFTISKPSSTTVTLQMTRLTAADTATYFCAREGADGPDYGYAAFSLWGPGTLVTVSS VL: DIVMTQTPASVEAAVGGTVTIKCQASQTISSYFSWYQQKPGQPPKLLIYKASSLASGVPSRFKGSGSGTQFTLTISDLECADAATYYCQSFYGSVSSDVGGFAFGGGTEVVVK" value="2 min"
binder="2C11 (antibody, V domains shown, Rabbit monoclonal IgG (150 kDa); also called anti-1,6fucPSA antibody 2C11) VH: QSLEESGGGLVKPGGTLTLTCKASGFSFGPGYDMCWVRQAPGKGLEWIACIYADGSDNTYYASWARGRFTISKTSSTTVTLQMTRLTAADTATYFCAREGADNPNYGYAALRLWGPGTLVTVSS VL: DIVMTQTPASVEAPVGGTVTIKCQASESISSYLAWYQQKPGQPPKLLIYKTSTLASGVPSRFKGSGSGTEFTLTISDLECANAATYYCQSFYGSVSSDYGGFAFGGGTEVVVK" value="15 min"
binder="3B10 (antibody, V domains shown, Rabbit monoclonal IgG (150 kDa); also called anti-1,6fucPSA antibody 3B10) VH: QSLEESGGGLVKPGGTLTLTCKASGFSFSSGYDMCWVRQAPGKGLEWIACIYADGSDNTYYASWAKGRFTISKTSSTTVTLQMTRLTAADTATYFCAREGADNPNYGYAALRLWGPGTLVTVSS VL: DIVMTQTPASVEAPVGGTVTIKCQATQSISSYLSWYQQKPGQPPKLLIYKTSTLASGVPSRFKGSGSGTEFTLTISDLECANAATYYCQSYYGSISSDYGGFAFGGGTEVVVK" value="1 min"
